Biological target: SARS-Cov-2 3CLpro (Severe acute respiratory syndrome coronavirus 2)
Construct: 3CLpro and HRV3C was added using a Multidrop Combi
Assay: biochemical
Settings: 3CLpro, 30 mins preincubation, SAMDI-MS; read-out: SARS-Cov-2 IC50 (class)
measure: IC50

Solved cases (2 shown):
[[record]]
molecule_smiles = "CC(C)(C)[C@H](NC(=O)C(F)(F)F)C(=O)N1C[C@H]2[C@@H]([C@H]1C(=O)N[C@H](C#N)C[C@@H]1OCCCNC1=O)[C@H]1C=C[C@@H]2C1"
recorded_measurement = "< 20 nM"

[[record]]
molecule_smiles = "CC1(C)NC(=O)[C@H](C[C@@H](C#N)NC(=O)[C@@H]2[C@@H]3[C@H](CN2C(=O)[C@@H](NC(=O)C(F)(F)F)C(C)(C)C)[C@@H]2C=C[C@H]3C2)O1"
recorded_measurement = "20 to 200 nM"


Now, please, on to the next molecule.
Query: Return reported IC50. Input molecule: C=CC1([C@H](NC(=O)C(F)(F)F)C(=O)N2C[C@H]3[C@@H]([C@H]2C(=O)N[C@H](C#N)C[C@@H]2CCNC2=O)[C@H]2C=C[C@@H]3C2)CCC1
Result: < 20 nM

----------
Biological target: SARS-Cov-2 3CLpro (Severe acute respiratory syndrome coronavirus 2)
Construct: 3CLpro and HRV3C was added using a Multidrop Combi
Assay: biochemical
Details: 3CLpro, 30 mins preincubation, SAMDI-MS; read-out: SARS-Cov-2 IC50 (bound)
pIC50: −log10 of the molar value.
measure: pIC50

Query: Return reported pIC50. Input compound: CC(C)(C)[C@H](NC(=O)C(F)(F)F)C(=O)N1C[C@@H]2[C@@H]([C@@H]3CC[C@H]2O3)[C@@H]1C(=O)N[C@H](C#N)C[C@@H]1CCNC1=O (relative stereo) [Compound 58a]
Result: < 5.00

----------
Tested on: human beta-coronavirus OC43
Assay: OC43 coronavirus antiviral assay in HeLa cells (cytopathic effect, cell-titer-glo)
Assay type: cell-based
Details: Betacoronavirus 1, OC43, HeLa, 144 h, 6 days at 33° C., read-out: EC50 (class)
measure: EC50

Solved cases (2 shown):
[[record]]
compound = "CN1CC(C[C@@H](C#N)NC(=O)[C@@H]2[C@@H]3[C@H](CN2C(=O)[C@@H](NC(=O)C(F)(F)F)C(C)(C)C)[C@@H]2C=C[C@H]3C2)C(=O)N1 (stereo partly drawn)"
test_system = "human beta-coronavirus OC43"
recorded_measurement = "100 to 1000 nM"

[[record]]
compound = "CC(C)(C)[C@H](NC(=O)C(F)(F)F)C(=O)N1C[C@@H]2[C@H]3C[C@H](C[C@@H]3F)[C@@H]2[C@H]1C(=O)N[C@H](C#N)C[C@@H]1OCCNC1=O"
test_system = "human beta-coronavirus OC43"
recorded_measurement = "100 to 1000 nM"


Query: Give EC50 only, for O=C(NC1CC1)C(=O)C(C[C@@H]1CCNC1=O)NC(=O)[C@@H]1[C@@H]2[C@H](CN1C(=O)[C@@H]1C[C@]13CCCc1ccccc13)[C@@H]1C=C[C@H]2C1 (stereo partly drawn) , using human beta-coronavirus OC43 data.
Result: 100 to 1000 nM

----------
Biological target: SARS-Cov-2 3CLpro (Severe acute respiratory syndrome coronavirus 2)
Construct: 3CLpro and HRV3C was added using a Multidrop Combi
Experiment: biochemical
Details: 3CLpro, 30 mins preincubation, SAMDI-MS; read-out: SARS-Cov-2 IC50 (class)
pIC50: −log10 of the molar value.
measure: pIC50

Solved cases (8 shown):
[[record]]
compound = "CC1(C(NC(=O)C(F)(F)F)C(=O)N2C[C@H]3[C@@H]([C@H]2C(=O)N[C@H](C#N)C[C@@H]2CCNC2=O)[C@H]2C=C[C@@H]3C2)CC1 (some centres unmarked)"
recorded_measurement = "> 7.70"

[[record]]
compound = "CC(C)(C)[C@H](NC(=O)C(F)(F)F)C(=O)N1C[C@H]2[C@@H]([C@H]1C(=O)N[C@H](C#N)C[C@@H]1CCCNC1=O)[C@H]1C=C[C@@H]2C1"
recorded_measurement = "> 7.70"

[[record]]
compound = "Cc1nnc(N[C@H](C(=O)N2C[C@H]3[C@@H]([C@H]2C(=O)N[C@H](C#N)C[C@@H]2CCNC2=O)[C@H]2C=C[C@@H]3C2)C(C)(C)C)o1"
recorded_measurement = "> 7.70"

[[record]]
compound = "COC(C)(C)C(=O)N[C@H](C(=O)N1C[C@H]2[C@@H]([C@H]1C(=O)N[C@H](C#N)C[C@@H]1CCNC1=O)[C@H]1C=C[C@@H]2C1)C(C)(C)C"
recorded_measurement = "6.70 to 7.70"

[[record]]
compound = "CC(C)(C)[C@H](NC(=O)C(F)(F)F)C(=O)N1C[C@H]2[C@@H]([C@H]1C(=O)N[C@H](C#N)C[C@@H]1CCNC1=O)[C@H]1C=C[C@@H]2C1O (mixture of isomers)"
recorded_measurement = "6.70 to 7.70"

[[record]]
compound = "CC(C)(C)[C@H](NC(=O)C(F)(F)F)C(=O)N1C[C@@H]2[C@H]3C[C@@H]([C@@H]2[C@H]1C(=O)N[C@H](C#N)C[C@@H]1CCNC1=O)[C@H](O)C3"
recorded_measurement = "5.70 to 6.70"

[[record]]
compound = "CC(C)(C)[C@H](NC(=O)C(F)(F)F)C(=O)N1C[C@@H]2[C@@H]3CC[C@@H](C3)[C@@H]2[C@H]1C(=O)N[C@H](C#N)C[C@@H]1CCNC1=O"
recorded_measurement = "> 7.70"

[[record]]
compound = "CC1(C(=O)N[C@H](C(=O)N2C[C@H]3[C@@H]([C@H]2C(=O)N[C@H](C#N)C[C@@H]2CCNC2=O)[C@H]2C=C[C@@H]3C2)C(C)(C)C)CC1"
recorded_measurement = "6.70 to 7.70"


I have 7 compounds here; please give me pIC50 for each one.
1. CC(C)(C)[C@H](NC(=O)C(F)(F)F)C(=O)N1C[C@H]2[C@@H]([C@H]1C(=O)N[C@H](C#N)CC1Cn3nccc3NC1=O)[C@H]1C=C[C@@H]2C1 (some centres unmarked)
2. CC(C)(C)[C@H](NC(=O)C(F)(F)F)C(=O)N1C[C@H]2[C@@H]([C@H]1C(=O)N[C@H](C#N)C[C@@H]1CCNC1=O)[C@H]1CC[C@@H]2O1 (mixture of isomers)
3. CC(C)(C)[C@H](NC(=O)c1ccco1)C(=O)N1C[C@H]2[C@@H]([C@H]1C(=O)N[C@H](C#N)C[C@@H]1CCNC1=O)[C@H]1C=C[C@@H]2C1
4. CC(C)(F)C(=O)N[C@H](C(=O)N1C[C@H]2[C@@H]([C@H]1C(=O)N[C@H](C#N)C[C@@H]1CCNC1=O)[C@H]1C=C[C@@H]2C1)C(C)(C)C
5. CC(C)(C)[C@H](NC(=O)C(F)(F)F)C(=O)N1C[C@H]2[C@@H]([C@H]1C(=O)N[C@H](C#N)C[C@@H]1CCNC1=O)[C@H]1CC[C@@H]2O1 (relative stereo) [Compound 58b]
6. CC(C)(C)[C@H](NC(=O)C(F)(F)F)C(=O)N1C[C@H]2[C@@H]([C@H]1C(=O)N[C@H](C#N)C[C@@H]1Oc3ccncc3NC1=O)[C@H]1C=C[C@@H]2C1(F)F
7. CC(C)(C)[C@H](NC(=O)C(F)(F)F)C(=O)N1C[C@H]2[C@@H]([C@H]1C(=O)N[C@H](C#N)CC1C[C@H](C(F)(F)F)NC1=O)[C@H]1C=C[C@@H]2C1 (some centres unmarked)

Result:
1: > 7.70; 2: 5.70 to 6.70; 3: 6.70 to 7.70; 4: > 7.70; 5: 5.70 to 6.70; 6: > 7.70; 7: > 7.70

I have 5 compounds here; please give me pIC50 for each one.
1. N#C[C@H](C[C@@H]1CCNC1=O)NC(=O)[C@@H]1[C@@H]2[C@H](CN1C(=O)[C@@H]1C[C@]13CCOc1ccccc13)[C@@H]1C=C[C@H]2C1 (relative stereo)
2. CC(C)(C)[C@H](NC(=O)C1(F)CC1)C(=O)N1C[C@@H]2[C@@H]3CC[C@@H](C3)[C@@H]2[C@H]1C(=O)N[C@H](C#N)C[C@@H]1CCNC1=O
3. CC(C)(C)[C@H](NC(=O)C(F)(F)F)C(=O)N1C[C@H]2[C@@H]([C@H]1C(=O)N[C@H](C#N)C[C@@H]1Oc3cnccc3NC1=O)[C@H]1C=C[C@@H]2C1
4. CC(C)(C)[C@H](NC(=O)C(F)(F)F)C(=O)N1C[C@H]2[C@@H]([C@H]1C(=O)N[C@H](C#N)C[C@@H]1CCNC1=O)[C@H]1C=C[C@@H]2C1F (stereo in doubt)
5. CC(C)(C)[C@H](NC(=O)C(F)(F)C(F)(F)F)C(=O)N1C[C@H]2[C@@H]([C@H]1C(=O)N[C@H](C#N)C[C@@H]1CCNC1=O)[C@H]1C=C[C@@H]2C1

Result:
1. 6.70 to 7.70
2. > 7.70
3. > 7.70
4. > 7.70
5. > 7.70

Reference source for all entries: patent US12252481B2
